Experimental Target: EcIspF (Escherichia coli)
Assay Overview: SPR binding assay with immobilized EcIspF
Measurement Setup: Δg = ΔG/N, N = number of non-hydrogen atoms; Table 5
Decide using ligand efficiency (Δg) alone. Strictly below -0.8 kJ·mol^−1/non-H atom: rule met. Equal to or above -0.8 kJ·mol^−1/non-H atom: rule not met.

Molecule: Nc1ccn([C@@H]2O[C@H](COP(=O)(O)O)[C@@H](O)[C@@H]2O)c(=O)n1
Cat: rule not met
//
Molecule: Nc1ccn(CC(CO)OCP(=O)(O)O)c(=O)n1.O.O (stereo in doubt)
Cat: rule not met
//
Molecule: N[C@@H](Cc1c[nH]c2ccccc12)C(=O)NO
Cat: rule met

----------
Experimental Target: EcIspF (Escherichia coli, UniProt P62617)
Assay Overview: SPR binding assay with immobilized EcIspF
Measurement Setup: ΔG = −RT ln Kd
ΔG values, listed per item

Compound: Nc1ccn(CC(CO)OCP(=O)(O)O)c(=O)n1.O.O (stereo in doubt)
Experimental Target: EcIspF (Escherichia coli, UniProt P62617)
Unit Of Measurement: kcal/mol
ΔG: -1.81
--
Compound: Nc1ccn([C@@H]2O[C@@H]3COP(=O)(O)O[C@H]3[C@H]2O)c(=O)n1
Experimental Target: EcIspF (Escherichia coli, UniProt P62617)
Unit Of Measurement: kcal/mol
ΔG: -3.929
--
Compound: Nc1ccn([C@@H]2O[C@H](COP(=O)(O)O)[C@@H](O)[C@H]2O)c(=O)n1
Experimental Target: EcIspF (Escherichia coli, UniProt P62617)
Unit Of Measurement: kcal/mol
ΔG: -3.941
--
Compound: Nc1ccn([C@@H]2O[C@H](COP(=O)(O)O)[C@@H](O)[C@@H]2O)c(=O)n1
Experimental Target: EcIspF (Escherichia coli, UniProt P62617)
Unit Of Measurement: kcal/mol
ΔG: -2.23
--
Compound: Nc1nc(=O)n([C@@H]2O[C@H](CO)[C@@H](O)[C@H]2O)cc1F
Experimental Target: EcIspF (Escherichia coli, UniProt P62617)
Unit Of Measurement: kcal/mol
ΔG: -3.489

----------
ligand efficiency (Δg) values, listed per item
Experimental Target: EcIspF (Escherichia coli, UniProt P62617)
Sequence (P62617 1-159): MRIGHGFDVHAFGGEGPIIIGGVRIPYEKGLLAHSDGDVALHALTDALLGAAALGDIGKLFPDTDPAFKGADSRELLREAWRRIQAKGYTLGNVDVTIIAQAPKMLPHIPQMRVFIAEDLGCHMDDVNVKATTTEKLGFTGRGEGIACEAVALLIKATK
Assay Overview: SPR binding assay with immobilized EcIspF
Measurement Setup: Δg = ΔG/N, N = number of non-hydrogen atoms; Table 5

Sample Smiles: Nc1ccn([C@@H]2O[C@@H]3COP(=O)(O)O[C@H]3[C@H]2O)c(=O)n1
ligand efficiency (Δg): −0.82 kJ·mol^−1/non-H atom
//
Sample Smiles: Nc1nc(=O)n([C@@H]2O[C@H](CO)[C@@H](O)[C@H]2O)cc1F
ligand efficiency (Δg): −0.81 kJ·mol^−1/non-H atom
//
Sample Smiles: Nc1ccn([C@@H]2O[C@H](COP(=O)(O)O)[C@@H](O)[C@H]2O)c(=O)n1
ligand efficiency (Δg): −0.79 kJ·mol^−1/non-H atom
